# EXPERIMENTAL_TARGET: gp41 of HIV-1 strain CC 1/85 (HIV-1 strain CC 1/85)
# METHOD_DESCRIPTION: cell-based or functional assay
Where no end group is shown, it is not given here. [ ]: non-standard residue; d: D form. APC = trans-3-aminopyrrolidine-4-carboxylic acid; ACPC = trans-2-aminocyclopentanecarboxylic acid; β3hR = N=C(N)NCCC[C@H](N)CC(=O)O; β3hT = C[C@@H](O)[C@H](N)CC(=O)O; β3hE = N[C@@H](CCC(=O)O)CC(=O)O; β3hA = C[C@H](N)CC(=O)O
MEASURED_PROPERTY: Inhibition of HIV-1 infectivity, IC50 (nM), CC 1/85

1) Ac-TTWEAWDRAIAEYAARIEALI[β3hR]AAQ[β3hE]QQ[β3hE]KNE[β3hA]AL[β3hR]EL (Chimera of α-peptide 3 and α/β-peptide 4; also called oligomer 5) [(α+α/β)-peptide 5] | 270
2) Ac-[β3hT]TWE[β3hA]WD[β3hR]AIA[β3hE]YA[β3hA]RIE[β3hA]LI[β3hR]AAQ[β3hE]QQ[β3hE]KNE[β3hA]AL[β3hR]EL (also called oligomer 4) [α/β-peptide 4] | 1300
3) Ac-TTWEAWDRAIAEYAARIEALIRAAQEQQEKNEAALREL (also called T-2635; CHR α-peptide 3) [α-peptide 3] | 140
4) Ac-[β3hT]TWE[ACPC]WD[APC]AIA[β3hE]YA[ACPC]RIE[ACPC]LI[APC]AAQ[β3hE]QQ[β3hE]KNE[ACPC]AL[APC]EL-NH2 (Made from 9 by replacing the three β3-hArg residues with APC; also called foldamer 10) [α/β-peptide 10] | 180

Reference source: patent US20130177981A1
